Source listed as the supplement of paper PMC6555819.

test system: PPARg:RXRa DBDmut IVT, anti-RXR (DBD mutation: RXRa K156A/R161A, NR concentration 270 nM, RXRa partner concentration 90 nM); assay: PBM binding z-score (relative to random genomic background probes); higher = stronger binding; sequences stand for … in GC…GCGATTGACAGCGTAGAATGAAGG
Tick true (1) if PBM binding z-score is 3 or greater. Tick false (0) if PBM binding z-score is less than 3.

1) ACTATTAGTTGACTTGGGGCAACCGATACGACGC = false (0)
2) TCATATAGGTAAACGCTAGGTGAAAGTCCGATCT = true (1)
3) ATCTCTAGGTAACAAGTTCAGTGTAAGAGAGGAC = true (1)
4) ATCTCTAGGTAAAAGTTCAGTCAATCCCGAGGAT = false (0)
5) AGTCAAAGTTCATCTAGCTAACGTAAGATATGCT = false (0)
6) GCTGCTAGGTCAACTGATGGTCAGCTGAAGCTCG = true (1)
7) TAGCCTAGGTCATTCAGGGGACAGTATAGAAAGC = false (0)
8) TCTTGTAGATCAAAAGGAGGTTAAGAAAGATCGA = false (0)
9) AGTACGAGGGCACGCTGAGTTGATAGCAGAGTAG = false (0)
10) AGTCAAAGTTCACTAAGTAACGTAAGATTCAGCT = false (0)
11) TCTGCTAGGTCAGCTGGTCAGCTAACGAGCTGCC = false (0)
12) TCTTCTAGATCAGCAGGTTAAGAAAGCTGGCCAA = false (0)

###

tested on: PPARg:RXRa (NR concentration 180 nM, RXRa partner concentration 90 nM); test: PBM binding z-score (relative to random genomic background probes); higher = stronger binding; sequences stand for … in GC…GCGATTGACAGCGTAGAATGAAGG
reportedProperty: PBM binding z-score

1) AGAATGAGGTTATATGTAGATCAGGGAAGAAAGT = 2.33
2) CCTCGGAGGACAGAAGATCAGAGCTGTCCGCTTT = -0.0907
3) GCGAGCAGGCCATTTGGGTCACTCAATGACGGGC = 0.6
4) CAAACTAGGTCACCGGAAGGTCAATGTCCGCATG = 9.44
5) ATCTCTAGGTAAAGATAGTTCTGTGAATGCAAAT = 0.505
6) ATCGAAAGGTGGAAGGTGAGTATACCCACCCGAA = 1.53
7) TATACAGGGTCAAAGGCTAGAGTACGAATGTCGA = 7.9
8) TCTTGTAGATCAAGGGTTAAGAAAGCCGAAGCCT = 5.36
9) ATCGAAAGGTCGTGAGGTGAGTAGACAGAAAGGC = 3.83
10) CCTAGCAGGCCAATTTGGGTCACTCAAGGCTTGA = 0.558
11) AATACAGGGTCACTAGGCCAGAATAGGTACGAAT = 7.89
12) CCGACTGGAGCAGAAAGGTTACCATACCATCCGG = 1.61

###

test system: VDR homodimer (NR concentration 270 nM); experiment: PBM binding z-score (relative to random genomic background probes); higher = stronger binding; sequences stand for … in GC…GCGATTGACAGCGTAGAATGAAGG
Category key, based on recorded PBM binding z-score: low-valued (below 0.2), mid-valued (0.2 to below 1), high-valued (1 or more)

1) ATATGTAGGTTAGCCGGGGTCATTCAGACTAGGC = high-valued
2) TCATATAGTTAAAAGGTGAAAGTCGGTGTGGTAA = mid-valued
3) TCATGTAGGTAAAGGTGAAAGTCGAACGATATGA = mid-valued
4) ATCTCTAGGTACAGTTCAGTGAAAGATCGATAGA = high-valued
5) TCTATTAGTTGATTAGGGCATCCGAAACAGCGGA = mid-valued
6) CGAACGAGGGCATGAGCTGATAGCAAATGCCGAT = mid-valued
7) TCTGCTAGGTCAGTTGGTCAGTTAACGAGCTGCC = low-valued
8) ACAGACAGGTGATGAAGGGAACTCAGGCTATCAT = low-valued
9) AGAATGAGGTGATTAAGATCAGGGAATTGCGGTC = low-valued
10) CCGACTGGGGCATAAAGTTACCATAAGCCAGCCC = low-valued
11) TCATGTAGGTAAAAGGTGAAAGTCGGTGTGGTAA = mid-valued
12) ATCTATAGGTAAGACTCAGTTCAGTGAAGAACGC = high-valued
13) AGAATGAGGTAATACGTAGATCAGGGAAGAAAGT = low-valued
14) AGTCAAAGTTCAGGACGAGGTAACGTAAAGCACG = high-valued
15) AGAATGATGTTAAGATCAGGGAAACAGAATACAT = low-valued
16) TCTCCTAGGTCAGTTGGTCAGCTAACGAGCTGCC = low-valued
17) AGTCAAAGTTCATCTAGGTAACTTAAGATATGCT = high-valued
18) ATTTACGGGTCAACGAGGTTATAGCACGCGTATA = high-valued
19) AATACAGGGTCATCGTAGGGCAGAGTACGCACAG = high-valued
20) TAGCTTAGGTCATTGGGCCAGTATAGTACGCATC = high-valued
21) TCTTGTAGATCAGCAGGTTAAGGAAGCTGGCCAA = low-valued
22) CGTCCAACGTCAGAGAGGTCAGTGAATGCCGAGT = high-valued
23) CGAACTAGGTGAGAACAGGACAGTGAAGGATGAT = mid-valued
24) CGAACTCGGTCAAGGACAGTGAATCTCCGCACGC = mid-valued
25) TGAATGAGGTTATAAGATCAGGGAACGTTGCAAA = mid-valued
